# Tested on: PPARg:RXRa 30nM:10nM, anti-RXR (NR concentration 30 nM, RXRa partner concentration 10 nM)
# Test: PBM binding z-score (relative to random genomic background probes); higher = stronger binding; sequences stand for … in GC…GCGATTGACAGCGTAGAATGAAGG
Criterion: PBM binding z-score meeting or surpassing 3. Met: Fulfilled. Not met: Not fulfilled.

Some solved entries appear below for comparison.
Sequence text: CGAACTAGGACAAAGGACAGTGAAAGGCGACGTA
Classification: Fulfilled

Sequence text: TAGCCTAGGTCATTCAGGCGCCAGTATAGAAAGC
Classification: Not fulfilled

Sequence text: CCTAGTGGGCCAAAGGTCATTGATTCCAATGCTC
Classification: Fulfilled

Q) Is the recorded value of PBM binding z-score equal to or greater than 3 for this sequence? CCTACTGGGCCAAAGGTCATTGACTCCAATGCTC
A) Fulfilled

* * *

# Tested on: LXRb homodimer (NR concentration 270 nM)
# Test: PBM binding z-score (relative to random genomic background probes); higher = stronger binding; sequences stand for … in GC…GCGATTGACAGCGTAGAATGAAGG
Criterion: PBM binding z-score meeting or surpassing -0.1. Met: y. Not met: n.

Some solved entries appear below for comparison.
Sequence text: AGAATGGGGTTAAGATCAGGGAAACAGAATACAT
Classification: y
//
Sequence text: CCTTCTGGGCCATTCAGAGGTCATTGATCATATG
Classification: y
//
Sequence text: CCTAGTTGGTCAGGAAGTCACACACCGGATATGA
Classification: y
//
Sequence text: CCTACTGGGCCATTCAGAGGACATTGATCATATG
Classification: n

Q) Is the recorded value of PBM binding z-score equal to or greater than -0.1 for this sequence? CGAACTAGGTCAACGGACAGTGAAAGGCGACGTA
A) n

Q) Entry to check: ATATGGAGGTTAAGGGTCATTCAGGTTGGTTCGC
A) y

Q) Entry to check: GCTTCCGGGTCAAAGGTTATAGCATGAATAGAAT
A) y

Q) Entry to check: AGTCAAAGTTCATCTAGGTAACGAAAGATATGCT
A) y

Q) Entry to check: CGAACTAGGTCGAAGGACAGTGAAAGGCGACGTA
A) n

* * *

# Tested on: THRa:RXRa (NR concentration 90 nM, RXRa partner concentration 90 nM)
# Test: PBM binding z-score (relative to random genomic background probes); higher = stronger binding; sequences stand for … in GC…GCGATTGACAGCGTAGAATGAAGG
Returns the class for an entry based on its PBM binding z-score. Class ranges: low-valued (below 3), mid-valued (3 to below 4), high-valued (4 or more)

Sequence text: AGTCCAAGTTCACTAGGTAACGTAAGATTCAGCT
Classification: low-valued
//
Sequence text: CTATGTAGGTTAAGGGGGTCATTCCGTTTGAAAG
Classification: mid-valued
//
Sequence text: GATACAGGGTCAATGCCAGAGTACGCGTATTGAT
Classification: low-valued

Q) The entry to classify is AGTCAAAGTTCAGGACGAGGTACCGTAAAGCACG ; which class holds it?
A) low-valued

Q) Entry to check: ATCGAAAGGTCGACGAGTTGAGTATACACCGTTT
A) low-valued

Q) Entry to check: AGAATGAGGTTACCAAAGATCAGTGAAACGCTTG
A) low-valued

Q) Entry to check: CGAACTAGGTCACCAGGATAGTGAAGAGGTTGGA
A) mid-valued

Q) Entry to check: CAAACTAGGTCAAAGGTCAAACTCGAGCCAACCA
A) high-valued

Q) Entry to check: TCGAGTAGGTTAAGGGGGCATTCAGGGATGAAGA
A) mid-valued
